- Procedure text: Pharmacokinetics of trabectedin and docetaxel following coadministration in patients with advanced malignancies
- Format: in vivo, human
- Settings: human, in vivo, intravenous, docetaxel 60 mg/m^2 coadministered with trabectedin 600 μg/m^2 (n = 4); mean (SD)
Assay metric: clearance (mL/min)
One number for each entry, in mL/min.

What value of measured clearance is listed for CC(=O)O[C@@]12CO[C@@H]1C[C@H](O)[C@@]1(C)C(=O)[C@H](O)C3=C(C)[C@@H](OC(=O)[C@H](O)[C@@H](NC(=O)OC(C)(C)C)c4ccccc4)C[C@@](O)([C@@H](OC(=O)c4ccccc4)[C@H]21)C3(C)C [Docetaxel, trihydrate] ?
797

---

- Procedure text: Pharmacokinetics of trabectedin and docetaxel following coadministration in patients with advanced malignancies
- Format: in vivo, human
- Settings: human, in vivo, intravenous, docetaxel 60 mg/m^2 coadministered with trabectedin 400 μg/m^2 (n = 6); mean (SD); read-out: Vss
- Description: FIG. 2 and FIG. 3. Pharmacokinetic parameters of trabectedin and docetaxel following coadministration in patients with advanced malignancies. A phase I trial combining docetaxel and trabectedin was performed. The objective of this study was to determine the maximum tolerated dose (MTD) of trabectedin in combination with docetaxel (60 mg/m^2 or 75 mg/m^2) administered every 21 days. […]
Assay metric: Vd (L)
One number for each entry, in L.

What value of measured Vd is listed for CC(=O)O[C@@]12CO[C@@H]1C[C@H](O)[C@@]1(C)C(=O)[C@H](O)C3=C(C)[C@@H](OC(=O)[C@H](O)[C@@H](NC(=O)OC(C)(C)C)c4ccccc4)C[C@@](O)([C@@H](OC(=O)c4ccccc4)[C@H]21)C3(C)C [Docetaxel, trihydrate] ?
405

---

- Procedure text: Pharmacokinetics of trabectedin and docetaxel following coadministration in patients with advanced malignancies
- Assay type: in vivo, human
- Settings: human, in vivo, intravenous, docetaxel 60 mg/m^2 coadministered with trabectedin 600 μg/m^2 (n = 4); mean (SD); read-out: Vss
Assay metric: Vd

What value of measured Vd is listed for CC(=O)O[C@@]12CO[C@@H]1C[C@H](O)[C@@]1(C)C(=O)[C@H](O)C3=C(C)[C@@H](OC(=O)[C@H](O)[C@@H](NC(=O)OC(C)(C)C)c4ccccc4)C[C@@](O)([C@@H](OC(=O)c4ccccc4)[C@H]21)C3(C)C [Docetaxel, trihydrate] ?
900 L

The reported numbers originate from patent US20100009906A1.
